Every entry's value here was drawn from patent US12570666B2.

# system_under_test: human GPR84 receptor (Homo sapiens)
# Construct: frozen aliquots prepared by acCELLerate
# Sequence (Q9NQS5 whole entry): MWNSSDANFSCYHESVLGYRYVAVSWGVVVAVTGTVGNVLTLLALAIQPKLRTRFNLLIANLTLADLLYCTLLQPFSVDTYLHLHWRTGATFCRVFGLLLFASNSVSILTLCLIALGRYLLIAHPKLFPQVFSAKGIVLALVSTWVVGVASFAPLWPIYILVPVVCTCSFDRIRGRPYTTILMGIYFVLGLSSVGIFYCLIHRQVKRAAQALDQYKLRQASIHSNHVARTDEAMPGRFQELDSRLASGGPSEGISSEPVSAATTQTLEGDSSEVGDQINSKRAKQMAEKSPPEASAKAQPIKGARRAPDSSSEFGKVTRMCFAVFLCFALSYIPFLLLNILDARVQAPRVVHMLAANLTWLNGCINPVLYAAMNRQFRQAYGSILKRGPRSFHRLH
# method_notes: cAMP HTRF assay for identification of cellular GPR84 antagonists
# conditions_used: CHO-K1 cells stably expressing human GPR84; Forskolin + agonist 6-OAU (EC80); average or median values
Lab note: anything with IC50 below 10 nM is marked Fulfilled; values at 10 nM or higher are marked Not fulfilled.

{"molecule": "Cc1c(C(=O)NCc2nocc2C(=O)O)oc2c1-c1nn(Cc3ccccn3)cc1CC2", "answer_label": "Not fulfilled"}
{"molecule": "C[C@@H]1Cc2oc(C(=O)NC[C@@H]3CCCO3)c(C(F)(F)F)c2-c2nn(CC3CCN(C(=O)C4(C)CC4)CC3)cc21 (single isomer, unassigned)", "answer_label": "Fulfilled"}
{"molecule": "Cc1c(C(=O)NC[C@@H]2CCCO2)oc2c1-c1nn(CC3COc4ncccc4O3)cc1CC2 (mixture of isomers)", "answer_label": "Not fulfilled"}
{"molecule": "CCN1CCC(Cn2cc3c(n2)-c2c(oc(C(=O)NC[C@@H]4COCCO4)c2C(F)(F)F)CC3)CC1", "answer_label": "Not fulfilled"}
{"molecule": "Cc1c(C(=O)NCc2nnc[nH]2)oc2c1-c1nn(Cc3ccccn3)cc1CC2", "answer_label": "Not fulfilled"}
{"molecule": "Cc1ccc(Cn2cc3c(n2)-c2c(oc(C(=O)NC[C@@H]4COCCO4)c2C(F)(F)F)CC32CC2)cn1", "answer_label": "Fulfilled"}
